Test: Pharmacokinetics in ICR mice after intravenous and intragastric administration
Assay type: in vivo
Details: male, ICR, mouse, plasma, po, 5 mg/kg, ICR mice, PO 5 mg/kg, individual animals 401-403; read-out: Tmax
attribute measured: Tmax (h)

1. COc1nc(OCCF)ncc1-c1nc2c(n1C(C)C)[C@@]1(C(=O)Nc3cc(Cl)ccc31)N(c1cc(Cl)ccc1C)C2=O    2
2. COc1nc(C2CC2)ncc1-c1nc2c(n1C(C)C)[C@@]1(C(=O)Nc3cc(Cl)ccc31)N(c1cc(Cl)cnc1C)C2=O    1
3. COc1nc(N(C)C)ncc1-c1nc2c(n1C(C)C)[C@@]1(C(=O)Nc3cc(Cl)ccc31)N(c1cc(Cl)cnc1C)C2=O    1
4. COc1cc(OC(C)C)ncc1-c1nc2c(n1C(C)C)[C@@]1(C(=O)Nc3cc(Cl)ccc31)N(c1cc(Cl)cnc1C)C2=O    0.5
5. CCOc1ncc(-c2nc3c(n2C(C)C)[C@@]2(C(=O)Nc4cc(Cl)ccc42)N(c2cc(Cl)cnc2C)C3=O)c(OC)n1    0.5

====

Test: Pharmacokinetics in ICR mice after intravenous and intragastric administration
Assay type: in vivo
Details: male, ICR, mouse, plasma, po, 5 mg/kg, ICR mice, PO 5 mg/kg, individual animal
attribute measured: AUC(0-inf) (µg·h/mL)

1. CCOc1cc(OC)c(-c2nc3c(n2C(C)C)[C@@]2(C(=O)Nc4cc(Cl)ccc42)N(c2cc(Cl)ccc2F)C3=O)cn1 [Example S-98]    37.3
2. COc1cc(OC)c(-c2nc3c(n2C(C)C)[C@@]2(C(=O)Nc4cc(Cl)ccc42)N(c2cc(Cl)cnc2C)C3=O)cn1 [Example S-131]    3.77
3. COc1cc(C2CC2)ncc1-c1nc2c(n1C(C)C)[C@@]1(C(=O)Nc3cc(Cl)ccc31)N(c1cc(Cl)ccc1C)C2=O [Example S-103]    11.7
4. COc1cc(OC)c(-c2nc3c(n2C(C)C)[C@@]2(C(=O)Nc4cc(Cl)ccc42)N(c2cc(Cl)ccc2F)C3=O)cn1 [Example S-133]    6.15
5. COc1ncc(-c2nc3c(n2C(C)C)[C@@]2(C(=O)Nc4cc(Cl)ccc42)N(c2cc(Cl)ccc2F)C3=O)c(OC)n1 [Example S-44]    8.96
6. COc1ccc(-c2nc3c(n2C(C)C)[C@@]2(C(=O)Nc4cc(Cl)ccc42)N(c2cc(Cl)cnc2C)C3=O)c(OC)c1 [Example S-61]    2.77
7. COc1nc(C2CC2)ncc1-c1nc2c(n1C(C)C)[C@@]1(C(=O)Nc3cc(Cl)ccc31)N(c1cc(Cl)ccc1C)C2=O [Example S-121]    40.3
8. COc1cc(OC)c(-c2nc3c(n2C(C)C)[C@@]2(C(=O)Nc4cc(Cl)ccc42)N(c2cccc(Cl)c2)C3=O)cn1 [Example S-115]    3.67

====

Experiment: Pharmacokinetics in ICR mice after intravenous and intragastric administration
Type: in vivo
Conditions: male, ICR, mouse, plasma, po, 5 mg/kg, ICR mice, PO 5 mg/kg, mean of 3 animals; read-out: Tmax
Below: a set of entries, each annotated with reported Tmax.
attribute measured: Tmax (h)

1. COc1cc(OC)c(-c2nc3c(n2C(C)C)[C@@]2(C(=O)Nc4cc(Cl)ccc42)N(c2cc(Cl)cnc2C)C3=O)cn1    1
2. COc1cc(C(C)C)ccc1-c1nc2c(n1C(C)C)[C@@]1(C(=O)Nc3cc(Cl)ccc31)N(c1cc(Cl)ccc1C)C2=O    1
3. COc1ccc(-c2nc3c(n2C(C)C)[C@@]2(C(=O)Nc4cc(Cl)ccc42)N(c2cc(Cl)cnc2C)C3=O)c(OC)c1    0.33
4. COc1cc(OC)c(-c2nc3c(n2C(C)C)[C@@]2(C(=O)Nc4cc(Cl)ccc42)N(c2cc(Cl)ccc2F)C3=O)cn1    1
5. CCOc1ncc(-c2nc3c(n2C(C)C)[C@@]2(C(=O)Nc4cc(Cl)ccc42)N(c2cc(Cl)cnc2C)C3=O)c(OC)n1    0.42
6. COc1cc(OC)c(-c2nc3c(n2C(C)C)[C@@]2(C(=O)Nc4cc(Cl)ccc42)N(c2cccc(Cl)c2)C3=O)cn1    1.83

====

# IC50 measurements, system: MDM2 (Homo sapiens, UniProt Q00987)
# Sequence (Q00987 whole entry): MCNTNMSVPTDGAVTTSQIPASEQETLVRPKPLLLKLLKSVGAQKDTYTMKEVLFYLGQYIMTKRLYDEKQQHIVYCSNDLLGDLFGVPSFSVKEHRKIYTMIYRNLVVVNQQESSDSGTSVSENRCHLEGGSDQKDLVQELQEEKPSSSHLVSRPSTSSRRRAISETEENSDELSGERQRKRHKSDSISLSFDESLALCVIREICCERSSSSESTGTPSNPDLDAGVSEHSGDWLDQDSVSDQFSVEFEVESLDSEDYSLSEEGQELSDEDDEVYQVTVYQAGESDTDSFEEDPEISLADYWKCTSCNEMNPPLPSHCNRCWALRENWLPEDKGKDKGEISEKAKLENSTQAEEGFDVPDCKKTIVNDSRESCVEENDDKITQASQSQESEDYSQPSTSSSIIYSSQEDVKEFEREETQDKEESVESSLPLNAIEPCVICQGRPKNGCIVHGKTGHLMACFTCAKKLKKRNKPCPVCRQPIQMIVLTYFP
attribute measured: IC50 (nM)

1) COc1ccncc1-c1nc2c(n1C(C)C)[C@@]1(C(=O)Nc3cc(Cl)ccc31)N(c1cc(Cl)ccc1C)C2=O [Example S-18]    1.43
2) COc1ccc(-c2nc3c(n2C(C)C)[C@@]2(C(=O)Nc4cc(Cl)ccc42)N(c2cc(Cl)ccc2F)C3=O)c(OC)c1 [Example S-80]    2.56
3) COc1cc(N(C)C)ccc1-c1nc2c(n1C(C)C)[C@@]1(C(=O)Nc3cc(Cl)ccc31)N(c1cc(Cl)ccc1C)C2=O [Example S-23]    2.8
4) COc1cc(C(C)C)ccc1-c1nc2c(n1C(C)C)[C@]1(C(=O)Nc3cc(Cl)ccc31)N(c1cc(Cl)ccc1C)C2=O [Example R-32]    1100
5) COc1cc(N(C)C)ncc1-c1nc2c(n1C(C)C)[C@]1(C(=O)Nc3cc(Cl)ccc31)N(c1cc(Cl)ccc1C)C2=O [Example R-111]    110
6) COc1nc(C2CC2)ncc1-c1nc2c(n1C(C)C)[C@]1(C(=O)Nc3cc(Cl)ccc31)N(c1cc(Cl)ccc1C)C2=O [Example R-121]    300
7) COc1cc(OC(F)F)ncc1-c1nc2c(n1C(C)C)[C@@]1(C(=O)Nc3cc(Cl)ccc31)N(c1cc(Cl)ccc1C)C2=O [Example S-150]    1.93
8) COc1ncc(-c2nc3c(n2C(C)C)[C@@]2(C(=O)Nc4cc(Cl)ccc42)N(c2cc(Cl)cnc2C)C3=O)c(OC)n1 [Example S-42]    1.51
9) COc1ccccc1-c1nc2c(n1C(C)C)[C@]1(C(=O)Nc3cc(Cl)ccc31)N(c1cc(Cl)ccc1C)C2=O [Example R-5]    109
10) COc1ncc(-c2nc3c(n2C(C)C)[C@]2(C(=O)Nc4cc(Cl)ccc42)N(c2cc(C)ccc2C)C3=O)c(OC)n1 [Example R-56]    155
11) COc1cc(N(C)C)ncc1-c1nc2c(n1C(C)C)[C@@]1(C(=O)Nc3cc(Cl)ccc31)N(c1cc(Cl)ccc1C)C2=O [Example S-111]    1.52
12) COc1cc(C(C)C)ccc1-c1nc2c(n1C(C)C)[C@@]1(C(=O)Nc3cc(Cl)ccc31)N(c1cccc(Cl)c1)C2=O [Example S-93]    3.89
13) COc1ncc(-c2nc3c(n2C(C)C)[C@@]2(C(=O)Nc4cc(Cl)ccc42)N(c2ccc(C(N)=O)c(Cl)c2)C3=O)c(OC)n1 [Example S-60]    4.81

====

pIC50: −log10 of the molar value.
pIC50, UniProtKB Q00987, per-entry values.
attribute measured: pIC50

1. COc1cc(OC)c(-c2nc3c(n2C(C)C)[C@@]2(C(=O)Nc4cc(Cl)ccc42)N(c2cc(Cl)ccc2C)C3=O)cc1C    8.65
2. COc1nc(C)ncc1-c1nc2c(n1C(C)C)[C@]1(C(=O)Nc3cc(Cl)ccc31)N(c1cc(Cl)ccc1C)C2=O    6.36
3. COc1ccc(C#N)cc1-c1nc2c(n1C(C)C)[C@]1(C(=O)Nc3cc(Cl)ccc31)N(c1cc(Cl)ccc1C)C2=O    6.92
4. COc1cnccc1-c1nc2c(n1C(C)C)[C@]1(C(=O)Nc3cc(Cl)ccc31)N(c1cc(Cl)ccc1C)C2=O    6.93

====

Cmax reference
Assay: Pharmacokinetics in ICR mice after intravenous and intragastric administration
Type: in vivo
Conditions: male, ICR, mouse, plasma, iv, 2 mg/kg, IV 2 mg/kg, ICR mice, individual animal; read-out: Cmax
attribute measured: Cmax (ng/mL)

1) COc1ccc(-c2nc3c(n2C(C)C)[C@@]2(C(=O)Nc4cc(Cl)ccc42)N(c2cc(Cl)ccc2C)C3=O)c(OC)c1    1270
2) COc1ncc(-c2nc3c(n2C(C)C)[C@H](c2ccc(Cl)cc2)N(c2cc(Cl)cn(C)c2=O)C3=O)c(OC)n1 [HDM201, reference compound]    606
3) COc1cc(N(C)C)ccc1-c1nc2c(n1C(C)C)[C@@]1(C(=O)Nc3cc(Cl)ccc31)N(c1cc(Cl)ccc1C)C2=O    3780

====

Target: UniProtKB Q00987
Recorded log10 IC50 for the following compounds
attribute measured: log10 IC50 (log10 of the value in nM)

1) COc1nc(N(C)C)ncc1-c1nc2c(n1C(C)C)[C@@]1(C(=O)Nc3cc(Cl)ccc31)N(c1cccc(Cl)c1)C2=O [Example S-112]    0.06
2) COc1nc(C2CC2)ncc1-c1nc2c(n1C(C)C)[C@@]1(C(=O)Nc3cc(Cl)ccc31)N(c1cc(Cl)ccc1C)C2=O [Example S-121]    0.53
3) COc1cc(N(C)CCO)ccc1-c1nc2c(n1C(C)C)[C@]1(C(=O)Nc3cc(Cl)ccc31)N(c1cc(Cl)ccc1C)C2=O [Example R-162]    2.08
4) COc1ccc(N2C(=O)c3nc(-c4ccc(N)cc4OC)n(C(C)C)c3[C@@]23C(=O)Nc2cc(Cl)ccc23)cc1Cl [Example S-71]    0.47
5) COc1cc(C2CC2)ccc1-c1nc2c(n1C(C)C)[C@@]1(C(=O)Nc3cc(Cl)ccc31)N(c1cc(Cl)ccc1C)C2=O [Example S-86]    0.41
6) COc1ncc(-c2nc3c(n2C(C)C)[C@]2(C(=O)Nc4cc(Cl)ccc42)N(c2ccc(OC(F)(F)F)c(Cl)c2)C3=O)c(OC)n1 [Example R-161]    2.10
